assay: Oral bioavailability in Wistar Han rat at 5 mg/kg measured upto 24 hrs by LC-MS/MS analysis; format: ADME, organism-based; conditions: in vivo
MEASURED PROPERTY: bioavailability (%)
One number for each entry, in %.

In: // bioavailability lookup, key: N#Cc1ccc(COc2cccc(C3CCN(Cc4nc5ccc(C(=O)O)cc5n4C[C@@H]4CCO4)CC3)n2)c(F)c1 [DANUGLIPRON]
Out: 11

---

biological target: Voltage-gated inwardly rectifying potassium channel KCNH2 (Homo sapiens, UniProt Q12809); assay: Inhibition of hERG ion channel by patch-clamp method
Sequence (Q12809 whole entry): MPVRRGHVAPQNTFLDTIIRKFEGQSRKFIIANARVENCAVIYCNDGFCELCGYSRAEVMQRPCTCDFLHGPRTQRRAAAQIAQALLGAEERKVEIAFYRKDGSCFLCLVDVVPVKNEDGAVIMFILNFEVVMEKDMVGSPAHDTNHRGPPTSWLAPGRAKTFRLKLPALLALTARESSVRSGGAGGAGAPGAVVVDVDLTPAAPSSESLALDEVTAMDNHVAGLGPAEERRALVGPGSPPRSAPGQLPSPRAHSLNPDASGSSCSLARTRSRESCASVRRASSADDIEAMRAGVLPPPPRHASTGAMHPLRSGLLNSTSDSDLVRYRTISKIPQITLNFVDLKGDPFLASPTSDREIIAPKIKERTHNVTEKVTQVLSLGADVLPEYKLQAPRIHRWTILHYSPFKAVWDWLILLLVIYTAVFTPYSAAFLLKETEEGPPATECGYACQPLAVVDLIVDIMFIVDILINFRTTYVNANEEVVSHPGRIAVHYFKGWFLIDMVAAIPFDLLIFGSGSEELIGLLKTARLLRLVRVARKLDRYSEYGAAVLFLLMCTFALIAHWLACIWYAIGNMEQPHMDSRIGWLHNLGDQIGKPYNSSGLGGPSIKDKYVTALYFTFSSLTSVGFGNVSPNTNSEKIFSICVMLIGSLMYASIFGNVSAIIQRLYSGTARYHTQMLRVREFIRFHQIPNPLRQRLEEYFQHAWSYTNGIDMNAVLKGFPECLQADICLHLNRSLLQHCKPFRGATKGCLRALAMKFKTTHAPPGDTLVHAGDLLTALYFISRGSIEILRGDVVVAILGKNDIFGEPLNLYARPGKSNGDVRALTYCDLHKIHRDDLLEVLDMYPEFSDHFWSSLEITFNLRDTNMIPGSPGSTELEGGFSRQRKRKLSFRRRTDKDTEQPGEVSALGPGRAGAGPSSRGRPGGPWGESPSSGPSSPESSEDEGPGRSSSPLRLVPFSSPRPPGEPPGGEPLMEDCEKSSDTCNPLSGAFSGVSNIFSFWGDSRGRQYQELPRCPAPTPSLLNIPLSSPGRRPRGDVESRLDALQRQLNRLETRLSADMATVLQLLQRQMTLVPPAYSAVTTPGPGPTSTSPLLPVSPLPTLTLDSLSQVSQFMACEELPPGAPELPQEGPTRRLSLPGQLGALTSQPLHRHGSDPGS
MEASURED PROPERTY: pIC50
One number for each entry, as −log10 of the molar value.

# example entries with known answers
Cn1c(CN2CCC(c3nc(OCc4ccc(Cl)cc4F)ncc3F)CC2)nc2ccccc21 : 5.27
Cn1c(CN2CCC(c3cccc(OCc4ccc(Cl)cc4F)n3)CC2)nc2ccncc21 : 5.25

Shift focus to the following entry.
In: // pIC50 lookup, key: "N#Cc1ccc(COc2cccc(C3CCN(Cc4nc5ccc(C(=O)O)cc5n4C[C@@H]4CCO4)CC3)n2)c(F)c1"
Out: 5.37
